# credit: PubChem BioAssay AID1963423

Tested on: 439559-082-T-J2-PDC complex spheroid growth
Assay: Anticancer human tumor 439559-082-T-J2-PDC patient-derived colon adenocarcinoma cell line growth inhibition [Asc]
Settings: second compound 0.3 µM; first compound 0.316 µM; hits give low values
measured.attribute: viability, T/C (%)
Form entry: value (%) — number only.

Read off the recorded viability, T/C for O=C(c1ccc(F)c(F)c1Nc1ccc(I)cc1F)N1CC(O)([C@@H]2CCCCN2)C1 + CCN1C(C(=O)NC23CCC(C(=O)O)(CC2)CC3)C(c2cccc(Cl)c2F)C2(C(=O)Nc3cc(Cl)ccc32)C12CCCCC2 47.2

Read off the recorded viability, T/C for C#Cc1c(F)ccc2cc(O)cc(-c3ncc4c(N5CC6CCC(C5)N6)nc(OCC56CCCN5CC(F)C6)nc4c3F)c12 (stereo not drawn) + CCN1C(C(=O)NC23CCC(C(=O)O)(CC2)CC3)C(c2cccc(Cl)c2F)C2(C(=O)Nc3cc(Cl)ccc32)C12CCCCC2 73.4

Read off the recorded viability, T/C for C=CC(=O)N1CCN(c2nc(=O)n(-c3c(C)ccnc3C(C)C)c3nc(-c4c(O)cccc4F)c(F)cc23)C(C)C1 (stereo not drawn) + CCN1C(C(=O)NC23CCC(C(=O)O)(CC2)CC3)C(c2cccc(Cl)c2F)C2(C(=O)Nc3cc(Cl)ccc32)C12CCCCC2 110

Read off the recorded viability, T/C for COc1c(OCCCN2CCOCC2)ccc2c3n(c(=NC(=O)c4cnc(N)nc4)nc12)CCN3 + CCN1C(C(=O)NC23CCC(C(=O)O)(CC2)CC3)C(c2cccc(Cl)c2F)C2(C(=O)Nc3cc(Cl)ccc32)C12CCCCC2 59.7

Read off the recorded viability, T/C for CNC(C)C(=O)NC1CN(S(=O)(=O)c2cccc(S(=O)(=O)N3CCC4CCC(C(=O)NC(c5ccccc5)c5ccccc5)N4C(=O)C(NC(=O)C(C)NC)C3)c2)CCC2CCC(C(=O)NC(c3ccccc3)c3ccccc3)N2C1=O (stereo not drawn) + CCN1C(C(=O)NC23CCC(C(=O)O)(CC2)CC3)C(c2cccc(Cl)c2F)C2(C(=O)Nc3cc(Cl)ccc32)C12CCCCC2 84.7

Read off the recorded viability, T/C for O=C(c1cc(Cc2n[nH]c(=O)c3ccccc23)ccc1F)N1CCN(C(=O)C2CC2)CC1 + CCN1C(C(=O)NC23CCC(C(=O)O)(CC2)CC3)C(c2cccc(Cl)c2F)C2(C(=O)Nc3cc(Cl)ccc32)C12CCCCC2 111

Read off the recorded viability, T/C for CCN1CCN(Cc2ccc(Nc3ncc(F)c(-c4cc(F)c5nc(C)n(C(C)C)c5c4)n3)nc2)CC1 + CCN1C(C(=O)NC23CCC(C(=O)O)(CC2)CC3)C(c2cccc(Cl)c2F)C2(C(=O)Nc3cc(Cl)ccc32)C12CCCCC2 86.8

Read off the recorded viability, T/C for C=C(F)C(=O)N1CCN(c2nc(OCC3CCCN3C)nc3c2CCN(c2cccc4cccc(Cl)c24)C3)CC1CC#N (stereo not drawn) + CCN1C(C(=O)NC23CCC(C(=O)O)(CC2)CC3)C(c2cccc(Cl)c2F)C2(C(=O)Nc3cc(Cl)ccc32)C12CCCCC2 103

----------
Tested on: 439559-082-T-J2-PDC complex spheroid growth
Assay: Anticancer human tumor 439559-082-T-J2-PDC cell line growth inhibition [Asc];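 further: spheroids exposed to agents for 7 days starting day 3 after seeding; percent of DMSO vehicle control viability with 100% = vehicle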
Conditions: second compound 10 µM; first compound 0.1 µM; hits give low values
I'd be grateful if you could share measured viability, T/C for these entries.
Form entry: value (%) — number only.

Look up and report viability, T/C, with 439559-082-T-J2-PDC complex spheroid growth as system, for CNC(C)C(=O)NC1CN(S(=O)(=O)c2cccc(S(=O)(=O)N3CCC4CCC(C(=O)NC(c5ccccc5)c5ccccc5)N4C(=O)C(NC(=O)C(C)NC)C3)c2)CCC2CCC(C(=O)NC(c3ccccc3)c3ccccc3)N2C1=O (stereo not given) + Cc1c(S(C)(=O)=O)c(-c2cc(F)cc(N3CCN(c4ccc(NS(=O)(=O)c5ccc(NC(CCN6CCC(C(=O)OCCCP(=O)(O)O)CC6)CSc6ccccc6)c(S(=O)(=O)C(F)(F)F)c5)cc4)CC3)c2)c(-c2ccc(Cl)cc2)n1C(C)C 72.8

Look up and report viability, T/C, with 439559-082-T-J2-PDC complex spheroid growth as system, for C=C(F)C(=O)N1CCN(c2nc(OCC3CCCN3C)nc3c2CCN(c2cccc4cccc(Cl)c24)C3)CC1CC#N (stereo not given) + Cc1c(S(C)(=O)=O)c(-c2cc(F)cc(N3CCN(c4ccc(NS(=O)(=O)c5ccc(NC(CCN6CCC(C(=O)OCCCP(=O)(O)O)CC6)CSc6ccccc6)c(S(=O)(=O)C(F)(F)F)c5)cc4)CC3)c2)c(-c2ccc(Cl)cc2)n1C(C)C 85.8

Look up and report viability, T/C, with 439559-082-T-J2-PDC complex spheroid growth as system, for O=C(c1ccc(F)c(F)c1Nc1ccc(I)cc1F)N1CC(O)([C@@H]2CCCCN2)C1 + Cc1c(S(C)(=O)=O)c(-c2cc(F)cc(N3CCN(c4ccc(NS(=O)(=O)c5ccc(NC(CCN6CCC(C(=O)OCCCP(=O)(O)O)CC6)CSc6ccccc6)c(S(=O)(=O)C(F)(F)F)c5)cc4)CC3)c2)c(-c2ccc(Cl)cc2)n1C(C)C 32.6

Look up and report viability, T/C, with 439559-082-T-J2-PDC complex spheroid growth as system, for CCN1CCN(Cc2ccc(Nc3ncc(F)c(-c4cc(F)c5nc(C)n(C(C)C)c5c4)n3)nc2)CC1 + Cc1c(S(C)(=O)=O)c(-c2cc(F)cc(N3CCN(c4ccc(NS(=O)(=O)c5ccc(NC(CCN6CCC(C(=O)OCCCP(=O)(O)O)CC6)CSc6ccccc6)c(S(=O)(=O)C(F)(F)F)c5)cc4)CC3)c2)c(-c2ccc(Cl)cc2)n1C(C)C 63.5

Look up and report viability, T/C, with 439559-082-T-J2-PDC complex spheroid growth as system, for Cn1ncnc1[C@H]1c2n[nH]c(=O)c3cc(F)cc(c23)N[C@@H]1c1ccc(F)cc1 + Cc1c(S(C)(=O)=O)c(-c2cc(F)cc(N3CCN(c4ccc(NS(=O)(=O)c5ccc(NC(CCN6CCC(C(=O)OCCCP(=O)(O)O)CC6)CSc6ccccc6)c(S(=O)(=O)C(F)(F)F)c5)cc4)CC3)c2)c(-c2ccc(Cl)cc2)n1C(C)C 66.5

Look up and report viability, T/C, with 439559-082-T-J2-PDC complex spheroid growth as system, for NC1CCC(NC2CC2c2ccccc2)CC1 (stereo not given) + Cc1c(S(C)(=O)=O)c(-c2cc(F)cc(N3CCN(c4ccc(NS(=O)(=O)c5ccc(NC(CCN6CCC(C(=O)OCCCP(=O)(O)O)CC6)CSc6ccccc6)c(S(=O)(=O)C(F)(F)F)c5)cc4)CC3)c2)c(-c2ccc(Cl)cc2)n1C(C)C 86

Look up and report viability, T/C, with 439559-082-T-J2-PDC complex spheroid growth as system, for COc1c(OCCCN2CCOCC2)ccc2c3n(c(=NC(=O)c4cnc(N)nc4)nc12)CCN3 + Cc1c(S(C)(=O)=O)c(-c2cc(F)cc(N3CCN(c4ccc(NS(=O)(=O)c5ccc(NC(CCN6CCC(C(=O)OCCCP(=O)(O)O)CC6)CSc6ccccc6)c(S(=O)(=O)C(F)(F)F)c5)cc4)CC3)c2)c(-c2ccc(Cl)cc2)n1C(C)C 50.4

Look up and report viability, T/C, with 439559-082-T-J2-PDC complex spheroid growth as system, for C=CC(=O)N1CCN(c2nc(=O)n(-c3c(C)ccnc3C(C)C)c3nc(-c4c(O)cccc4F)c(F)cc23)C(C)C1 (stereo not given) + Cc1c(S(C)(=O)=O)c(-c2cc(F)cc(N3CCN(c4ccc(NS(=O)(=O)c5ccc(NC(CCN6CCC(C(=O)OCCCP(=O)(O)O)CC6)CSc6ccccc6)c(S(=O)(=O)C(F)(F)F)c5)cc4)CC3)c2)c(-c2ccc(Cl)cc2)n1C(C)C 80

Look up and report viability, T/C, with 439559-082-T-J2-PDC complex spheroid growth as system, for O=C(c1cc(Cc2n[nH]c(=O)c3ccccc23)ccc1F)N1CCN(C(=O)C2CC2)CC1 + Cc1c(S(C)(=O)=O)c(-c2cc(F)cc(N3CCN(c4ccc(NS(=O)(=O)c5ccc(NC(CCN6CCC(C(=O)OCCCP(=O)(O)O)CC6)CSc6ccccc6)c(S(=O)(=O)C(F)(F)F)c5)cc4)CC3)c2)c(-c2ccc(Cl)cc2)n1C(C)C 73.6

Look up and report viability, T/C, with 439559-082-T-J2-PDC complex spheroid growth as system, for C#Cc1c(F)ccc2cc(O)cc(-c3ncc4c(N5CC6CCC(C5)N6)nc(OCC56CCCN5CC(F)C6)nc4c3F)c12 (stereo not given) + Cc1c(S(C)(=O)=O)c(-c2cc(F)cc(N3CCN(c4ccc(NS(=O)(=O)c5ccc(NC(CCN6CCC(C(=O)OCCCP(=O)(O)O)CC6)CSc6ccccc6)c(S(=O)(=O)C(F)(F)F)c5)cc4)CC3)c2)c(-c2ccc(Cl)cc2)n1C(C)C 41.2
